experimental target: furin, P09958;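 further: purified furin at 1:10 enzyme:substrate in 50 mM HEPES pH 7.5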
Sequence (P09958 whole entry): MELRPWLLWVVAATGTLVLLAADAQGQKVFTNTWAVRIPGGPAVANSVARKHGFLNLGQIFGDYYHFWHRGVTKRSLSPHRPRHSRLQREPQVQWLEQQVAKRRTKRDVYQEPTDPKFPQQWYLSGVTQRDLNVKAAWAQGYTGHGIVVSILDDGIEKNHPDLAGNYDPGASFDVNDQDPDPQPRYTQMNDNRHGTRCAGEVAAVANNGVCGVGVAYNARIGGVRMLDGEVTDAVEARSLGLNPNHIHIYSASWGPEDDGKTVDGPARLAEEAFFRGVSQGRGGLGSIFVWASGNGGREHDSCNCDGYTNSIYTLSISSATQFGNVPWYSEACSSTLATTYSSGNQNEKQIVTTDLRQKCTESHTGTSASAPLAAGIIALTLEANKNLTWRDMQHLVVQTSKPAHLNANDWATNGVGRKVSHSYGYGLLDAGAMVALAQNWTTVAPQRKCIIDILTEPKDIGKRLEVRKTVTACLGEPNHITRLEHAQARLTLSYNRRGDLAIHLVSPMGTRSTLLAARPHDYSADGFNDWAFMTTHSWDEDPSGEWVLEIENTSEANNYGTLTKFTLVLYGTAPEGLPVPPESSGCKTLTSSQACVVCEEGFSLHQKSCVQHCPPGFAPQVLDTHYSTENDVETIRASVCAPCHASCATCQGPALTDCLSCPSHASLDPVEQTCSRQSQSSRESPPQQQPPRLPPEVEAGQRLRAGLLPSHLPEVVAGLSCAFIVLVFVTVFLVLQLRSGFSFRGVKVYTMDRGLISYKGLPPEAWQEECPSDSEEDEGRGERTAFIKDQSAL
test: furin cleavage Z-score vs untreated control; higher = more cleavage, active = 3.5 or more, inactive = 1 or less, 8 variable residues between constant flanks
settings: 7.5 min
The list shows a part of the results. How many sequences the whole screen found active is unknown.
value kind: furin cleavage Z-score
Answer with a number only.

Worked examples, 4 sequences total:
[[record]]
sequence_string = "CAVVCKSMSYAGNASASA [HC91]"
reported = -0.0467

[[record]]
sequence_string = "CAREKRWSVSAGNASASA [FS-2256]"
reported = 0.749

[[record]]
sequence_string = "CAEIVVCCSMAGNASASA [HC2124]"
reported = 0.157

[[record]]
sequence_string = "CARQRRIYKTAGNASASA [FS-2590]"
reported = -1.61


Please give the measured furin cleavage Z-score for this sequence: CAVVCCSFSYAGNASASA [HC2047]
0.639

Need furin cleavage Z-score, item CAVEKRGVHEAGNASASA [FS-1813]
-1.62

GET /values?readout=furin cleavage Z-score&item= CASTPCSAHEAGNASASA [HC2572]
-0.869

Which furin cleavage Z-score value belongs to CATMPCSGSWAGNASASA [HC1846] ?
-0.28

// returns reported furin cleavage Z-score for input CAREKRRQRNAGNASASA [FS-2135]
2.7

Fill in the blank: the reported furin cleavage Z-score of CARSVRPVEFAGNASASA [FS-3100] is ____.
-0.873

Would you kindly share the measured furin cleavage Z-score for CARQRRVRRRAGNASASA [FS-1160] ?
6.79

Data request, read-out furin cleavage Z-score, for CARQKRSMEEAGNASASA [FS-3260]
7.94

Could you tell me which furin cleavage Z-score is on file for CARQKRSIHEAGNASASA [FS-3036] ?
9.78

Recorded furin cleavage Z-score of CAEVVTSTWQAGNASASA [HC2262] , please.
0.0156

Requested read-out: furin cleavage Z-score. Entry: CARQKRSINLAGNASASA [FS-2587]
7.01
